Target: Muscarinic acetylcholine receptor M4 (Homo sapiens)
Conditions: Flp-In-CHO, filed as positive allosteric modulator, time 8.0 min
outcome_measure: pKb

{"columns": ["compound", "obs_value"],
 "data": [
  ["Cc1ccc(-c2cnn(CC3CCCC3)c2)c(-c2ccc3c(c2)C(=O)NC3)n1", 5.65],
  ["Cc1ccc(-c2cnn(CCCN)c2)c(-c2ccc3c(c2)C(=O)N(C)C3)n1", 4.79],
  ["Cc1ccc(-c2cnn(CCC#N)c2)c(-c2ccc3c(c2)C(=O)N(C)C3)n1", 4.74],
  ["COC(=O)CCCn1cc(-c2ccc(C)nc2-c2ccc3c(c2)C(=O)N(C)C3)cn1", 4.73],
  ["Cc1cnc(-c2ccc3c(c2)C(=O)N(C)C3)c(-c2cnn(CC3CCCC3)c2)c1", 4.73],
  ["Cc1ccc(-c2cnn(CC3CCCC3)c2)c(-c2ccc3c(c2)C(=O)N(C)C3)n1", 5.86],
  ["Cc1ccc(-c2cnn(CC3CCCC3)c2)c(-c2ccc3c(c2)C(=O)N(CC#N)C3)n1", 5.26],
  ["CN1Cc2ccc(-c3nc4ccccc4cc3-c3cnn(CC4CCCC4)c3)cc2C1=O", 4.53],
  ["Cc1ncc(-c2cnn(CC3CCCC3)c2)c(-c2ccc3c(c2)C(=O)N(C)C3)n1", 4.71],
  ["Cc1ccc(-c2cnn(CCCCC#N)c2)c(-c2ccc3c(c2)C(=O)N(C)C3)n1", 4.55],
  ["COC(=O)CCn1cc(-c2ccc(C)nc2-c2ccc3c(c2)C(=O)N(C)C3)cn1", 4.57]
]}

====

Target: Muscarinic acetylcholine receptor M4 (Homo sapiens) (UniProt P08173)
Sequence (P08173 whole entry): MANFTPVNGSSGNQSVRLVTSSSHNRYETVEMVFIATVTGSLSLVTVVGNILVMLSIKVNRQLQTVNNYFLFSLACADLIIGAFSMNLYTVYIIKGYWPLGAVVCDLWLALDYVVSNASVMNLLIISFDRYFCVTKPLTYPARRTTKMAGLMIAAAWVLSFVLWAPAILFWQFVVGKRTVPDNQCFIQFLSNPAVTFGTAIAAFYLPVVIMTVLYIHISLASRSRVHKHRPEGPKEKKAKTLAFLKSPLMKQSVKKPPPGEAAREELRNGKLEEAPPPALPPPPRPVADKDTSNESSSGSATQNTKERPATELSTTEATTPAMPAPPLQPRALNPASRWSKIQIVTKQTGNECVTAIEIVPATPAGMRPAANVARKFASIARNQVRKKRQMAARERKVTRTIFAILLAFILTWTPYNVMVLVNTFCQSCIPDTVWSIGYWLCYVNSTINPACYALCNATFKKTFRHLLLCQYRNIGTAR
Details: Flp-In-CHO, filed as positive allosteric modulator, time 8.0 min
outcome_measure: log(activity)

{"columns": ["compound", "log(activity)"],
 "data": [
  ["Cc1ccc(-c2cnn(CCCCC#N)c2)c(-c2ccc3c(c2)C(=O)N(C)C3)n1", 1.16],
  ["Cc1ccc(-c2cnn(CC3CCCC3)c2)c(-c2ccc3c(c2)C(=O)N(C)C3)n1", 1.58],
  ["COC(=O)CCn1cc(-c2ccc(C)nc2-c2ccc3c(c2)C(=O)N(C)C3)cn1", 0.73],
  ["Cc1ccc(-c2cnn(CC3CCCC3)c2)c(-c2ccc3c(c2)C(=O)N(CC#N)C3)n1", 1.55],
  ["Cc1ccc(-c2cnn(CC3CCCC3)c2)c(-c2ccc3c(c2)C(=O)NC3)n1", 1.72]
]}

a: CN1Cc2ccc(-c3nc4ccccc4cc3-c3cnn(CC4CCCC4)c3)cc2C1=O
b: Cc1ccc(-c2cnn(CCC#N)c2)c(-c2ccc3c(c2)C(=O)N(C)C3)n1
### Prompt For the two items a and b , which reports the higher log(activity) value? Pick one and reply with its label.
### Response a
(a: 1.56, b: 0.88)

a: Cc1ncc(-c2cnn(CC3CCCC3)c2)c(-c2ccc3c(c2)C(=O)N(C)C3)n1
b: Cc1cnc(-c2ccc3c(c2)C(=O)N(C)C3)c(-c2cnn(CC3CCCC3)c2)c1
### Prompt When the recorded log(activity) values are compared, which is smaller: that of a or that of b ? Pick one and reply with its label.
### Response a
(a: 1.3, b: 2.17)

====

Target: Muscarinic acetylcholine receptor M4 (Homo sapiens)
Details: Flp-In-CHO, filed as positive allosteric modulator, time 8.0 min
outcome_measure: log(activity)

{"columns": ["compound", "obs_value"],
 "data": [
  ["Cc1ccc(-c2cnn(CC3CCCC3)c2)c(-c2ccc3c(c2)C(=O)N(CC#N)C3)n1", 1.94],
  ["Cc1ccc(-c2cnn(CCCN)c2)c(-c2ccc3c(c2)C(=O)N(C)C3)n1", 1.56],
  ["Cc1ccc(-c2cnn(CCCCC#N)c2)c(-c2ccc3c(c2)C(=O)N(C)C3)n1", 1.93],
  ["Cc1ncc(-c2cnn(CC3CCCC3)c2)c(-c2ccc3c(c2)C(=O)N(C)C3)n1", 1.92],
  ["COC(=O)CCn1cc(-c2ccc(C)nc2-c2ccc3c(c2)C(=O)N(C)C3)cn1", 1.46]
]}
